Parameter: SPOT signal as a fraction of Bim BH3's signal on the same receptor and array. Scope: all listed entries.
- SYSTEM UNDER TEST: Bcl-xL, Q07817
- Sequence (Q07817 1-209): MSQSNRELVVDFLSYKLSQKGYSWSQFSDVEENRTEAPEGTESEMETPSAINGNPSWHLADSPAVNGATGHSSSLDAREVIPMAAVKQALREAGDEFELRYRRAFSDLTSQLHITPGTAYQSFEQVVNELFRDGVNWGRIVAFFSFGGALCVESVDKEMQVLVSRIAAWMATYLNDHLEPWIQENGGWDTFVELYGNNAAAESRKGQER
- PROTOCOL SUMMARY: peptide SPOT array, c-Myc-tagged receptor at 1 uM or 100 nM, anti-c-Myc-Cy3

These solved cases illustrate the format of a correct answer.
# BINDER, REPORTED RESULT
data = [
    ("KFELEQNIKELNTLADQVDTTHELLT [APOL5]", 0.02),
    ("DGLDLPSETDLRILGCELIQAAGILL [CCNL1]", 0.03),
    ("LSPGRSVTAGIIIVLDEILKGHTQDT [FLAD1]", 0.01),
]

Next, consider the following binder.
Data request, read-out SPOT signal as a fraction of Bim BH3's signal on the same receptor and array, for ELQAPATVQSDGLLGDRLCVGAAGGF [CDC42BPG]
0.01
